B1: TPR t1 (parent)
chain: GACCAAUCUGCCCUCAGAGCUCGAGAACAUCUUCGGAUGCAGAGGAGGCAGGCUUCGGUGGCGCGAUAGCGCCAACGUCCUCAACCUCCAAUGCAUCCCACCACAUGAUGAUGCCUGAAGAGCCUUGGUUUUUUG

variants of: B1; experiment: polymerase ribozyme fitness, log enrichment relative to wild type (log ratio); higher = more active; in vitro selection for triplet polymerase activity
Give measured polymerase ribozyme fitness (log ratio) for each item. Keep answers brief.
Form rule: numeric answer, no unit written next to it.

Given GACCCAUCUGCCCUCAGAGCUCGAGAACAUCUUCGGAUGCAGAGGAGGCAGGCUUCGGUGGCGCGAUAGCGCCAACGUCCUCAACCUGCAAUGCAUCCCACCACAUGAUGAUGCCUGAAGAGCCUUAGUUUUUUG [A5C C88G G127A] , state its recorded polymerase ribozyme fitness (log ratio).
-2.6

Now give it for GACCAAUCUGCCCUCAGAGCUCGAGAACAUCUUCGGAUGCAGAGGAGGCAGGCUUCGGUGUCGCGAUAGCGCCAACGUCCUGAACCUCCAAUGUAUCCCACCACAUGAUGAUGCCUGAAGAGCCUUGGUUUUUUG [G61U C82G C94U] too.
-0.714

Now give it for GACCAACCUGCCCUCAGAGCUCGAGAACGUCUUCGGAUGCAGAGGAGGCAGGCUUCGGUGGCUCGAUAGCGCCAACGUCCACAACCUCCAAUGCAUCCCACCACAUGAUGAUGCCUGAAGAGCCUUGGUUUCUUG [U7C A29G G63U U81A U132C] too.
-3.82

Now give it for GACCAAUCUGCCCUCAGAGGUCGAGAACAUCUUCGUAUGCAGAGGAGGCAGGCUUCGGUGGCGCGAUAGCGCCAACGUCCUCAACCUCCAACGCAUCCCAACACAAGAAGAUGCCUGAAGAGCCUUGGUUUUUUG [C20G G36U U92C C101A U106A U109A] too.
-3.02

Now give it for GACCAAUCUGCCCUCAGAGCUCGAGAACAUCUUCGGAUGCAGAGGAUGCAUGCUUCGGUGGCGCGAUAGCGCUAACGUCCUCAACCUCCAAUGCAUCCCACCACAUGAUGAUGCCUGAAGAGCCUUGGUUUUUUG [G47U G51U C73U] too.
-6.37

Now give it for GACCAAUCUGCCCUCAGAGCUCGAGAACAUCUUCGGAUGCAGAGGAGGCAGGCUUCGGUGUCGCGAUAGCGCCAACGUCCUCAACCUCCAAUGCAUACCCCCACAUGAUGAUGCCUGAAGAGCCUUGGUUUUUUG [G61U C97A A100C] too.
-3.32

Now give it for GACCAAUCUGCCCUCAGAGCUCGAGAACAUCUUCGGAUGCAGAGGAGGCACGCUUCGGUAGCGCGAUAGCGCCAACGUCCUCAACCUCCAAUGCAUCCCACCACAUGAUGGUGCCUGAAGAGCCUUGGUUUUUUG [G51C G60A A111G] too.
-4.94

Now give it for GACCAAUCUGCCCUCAGAGCUUGAGAACAUCUUCGGAUGCAGAGGAGGCAGGCUUCGGUGGCGCGAUAGCGCCAACGUCCUCAACCUCCAAUGCAUCCCACCACAUGAUGAUGCCUGAAGAGCCUUGGAUUUUUG [C22U U129A] too.
-5.14

Now give it for GACCAAUCUGCCCUCAGAGCUCGAGAACAUCUUCGGAUGCAGAGGAGGCAGGAUUCGGUGGCGCGAUAGCGCCAACGUCCUCAACCUCCAAUGUAUCCCACCAUAUGAUGACGCCUGAAGAGCCUUGGUUUUUUG [C53A C94U C104U U112C] too.
1.78

Now give it for GACCAAUCUGCCCUCAGAGCUCGAGAACAUCUUCGGAUGCAGAGGAGGCAGGCUUCGGUGGCGCGAUAGCGCCAACGUCCUCAACCUCCAAUGCAUCCCACUACAUGAUGAUACCUGAAGAGCCUUGGAUUUUUG [C102U G113A U129A] too.
-3.17

Now give it for GACCAAUCUGCCCUCAGAGCUCGAGAACAUCUUCGGAUGCAGAGGAGGCAGGUUUCGGUGGCGCGAUAGUGCCAACGUCCUCAACCUCCAAUGCAUCCCACCACAUGAUGAUGCCUGAAGAGCCUUGGUUUUUUG [C53U C70U] too.
-0.962

Now give it for GACCAAUCUGCCCUCAGAGCUCGAGAACAUCUUCGGAUGCAGAGGAGGCAGGCUUCGGUGGCGCGAUAGCGCCAACGUACUCAACCUCCAAUGAAUCCCACCACAUGAUGAUGCCUGAAGAGCCUUGGUUUUUUG [C79A C94A] too.
-2.38

Now give it for GACCAAUCGGCCCUCAGAGCUCGAGAACAUCUUCGGAUGCAGAGGAGGCAGGCUUCGGUGGCGCGAUAGCGCCAACGUCCUCAACCUCCAAUGCAUCCCACUACAUGAUGAUGCCUGAAGAGCCUUGGUUUUUUU [U9G C102U G135U] too.
-2.17

Now give it for GACCAAUCUGCCCUCAGAGCUCGAGAACAUCUUCGGAUGCAGAGUAGGCAGGCUUGGGUGGCGCGAUAGCGCCAACAUCCUCAACCUCCAAUGCAUCCCAUCACAUGAUGACGCCUGAAGAGCCUUGGUUUUUUG [G45U C56G G77A C101U U112C] too.
0.372

Now give it for GACCAAUCUGCCUUCAGAGCUCGAGAACAUCUUCAGAUGCAGAGGAGACAGGCUUCGGCGGCGCGAUAGCGCCAACGUCCUCAACUUCCAAUGCAUCCCACCACAUGAUGAUGCCUGAAUAGCCUUGGUUUUUUG [C13U G35A G48A U59C C86U G120U] too.
-5.19

Ref: the RNAGym collection of RNA variant scans (doi:10.1073/pnas.2313332121)
